- ASSAY_OVERVIEW: Cytotoxicity MTT assay
- Assay type: cell-based
- EXPERIMENTAL_CONTEXT: human, WI-38 normal lung fibroblast cells, WI38 cell line, read-out: cytotoxic effect IC50
- Description: The cytotoxicity of RHE extract was evaluated against human normal lung fibroblasts cell line WI-38 using MTT (3-(4,5-dimethylthiazol-2-yl)2,5-diphenyl tetrazolium bromide) assay[116] as recently described.
RECORDED_METRIC: IC50
Could you give the number and then its unit, please?

Quick one: IC50 for Nc1nc2c(ncn2COCCO)c(=O)[nH]1 [acyclovir] ?
48.6 µg/mL

---

- SYSTEM_NAME: UniProtKB P00772
- Sequence (P00772 27-266): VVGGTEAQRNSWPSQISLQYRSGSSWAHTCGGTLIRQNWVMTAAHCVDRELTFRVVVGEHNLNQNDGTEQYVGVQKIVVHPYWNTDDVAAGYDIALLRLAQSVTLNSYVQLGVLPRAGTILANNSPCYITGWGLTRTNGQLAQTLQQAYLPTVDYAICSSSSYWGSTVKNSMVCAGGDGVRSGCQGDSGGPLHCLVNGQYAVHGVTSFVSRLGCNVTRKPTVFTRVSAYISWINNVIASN
RECORDED_METRIC: IC50 (µM)
Provide the reading as a plain figure in µM.

Quick one: IC50 for c1cnc2c(c1)ccc1cccnc12 ?
142
